Provide the recorded IC50 for the entries that follow.
Tested on: Hep G2 cells
Experiment: Nicotinamide Reversibility Assay / cell growth inhibition of Hep G2 cells (SRB, six days)
Format: cell-based, human
Details: Homo sapiens, HepG2, 144 h; Hep G2; six days of compound incubation; SRB; read-out: Cell growth inhibition IC50-values [μM] Hep G2
Numbers only, in µM.

Some solved cases for reference:
>>> measured("[N-]=[N+]=CC(=O)OC[C@H](N)C(=O)O [Azaserine, reference compound]")
0.7
>>> measured("O=C(NCCCCC1CCN(S(=O)(=O)c2ccc3ccccc3c2)CC1)Nc1cccnc1")
0.6
>>> measured("S=C(NCCCCCC1CCN(C(c2ccccc2)c2ccccc2)CC1)Nc1cccnc1")
0.2

Lab note: next compound to report on.
Just so you know, measured IC50 for `Cn1c(CCNC(=O)/C=C/c2cccnc2)ccc1CN1CCN(C(c2ccccc2)c2ccccc2)CC1` came out at 0.7
